Origin of values: ChEMBL document CHEMBL5518208

- Method: AUC last in male ICR mouse at 5 mg/kg, iv measured upto 24 hrs by LC-MS/MS analysis
- Assay type: ADME, organism-based
- Run conditions: in vivo
Measure name: AUC(0-t) at 24 h (ng·h/mL)
Report the value in ng·h/mL with no unit label.

Field request: AUC(0-t) at 24 h | item: `O=c1ccc2c(N3C[C@@H]4[C@@H](CCP(=O)(O)O)[C@@H]4C3)ncnc2[nH]1`
4390

====

- Method: Observed AUC infinity in male ICR mouse at 5 mg/kg, iv measured upto 24 hrs by LC-MS/MS analysis
- Type: ADME, organism-based
- Run conditions: in vivo
Measure name: AUC(0-inf) (ng·h/mL)
All answers are understood in ng·h/mL, so give the number only.

Which AUC(0-inf) is reported for this compound? `O=c1ccc2c(N3C[C@@H]4[C@@H](CCP(=O)(O)O)[C@@H]4C3)ncnc2[nH]1`
4400
